# studySystem: SMARCA2 (Homo sapiens, UniProt P51531)
# Sequence (P51531 whole entry): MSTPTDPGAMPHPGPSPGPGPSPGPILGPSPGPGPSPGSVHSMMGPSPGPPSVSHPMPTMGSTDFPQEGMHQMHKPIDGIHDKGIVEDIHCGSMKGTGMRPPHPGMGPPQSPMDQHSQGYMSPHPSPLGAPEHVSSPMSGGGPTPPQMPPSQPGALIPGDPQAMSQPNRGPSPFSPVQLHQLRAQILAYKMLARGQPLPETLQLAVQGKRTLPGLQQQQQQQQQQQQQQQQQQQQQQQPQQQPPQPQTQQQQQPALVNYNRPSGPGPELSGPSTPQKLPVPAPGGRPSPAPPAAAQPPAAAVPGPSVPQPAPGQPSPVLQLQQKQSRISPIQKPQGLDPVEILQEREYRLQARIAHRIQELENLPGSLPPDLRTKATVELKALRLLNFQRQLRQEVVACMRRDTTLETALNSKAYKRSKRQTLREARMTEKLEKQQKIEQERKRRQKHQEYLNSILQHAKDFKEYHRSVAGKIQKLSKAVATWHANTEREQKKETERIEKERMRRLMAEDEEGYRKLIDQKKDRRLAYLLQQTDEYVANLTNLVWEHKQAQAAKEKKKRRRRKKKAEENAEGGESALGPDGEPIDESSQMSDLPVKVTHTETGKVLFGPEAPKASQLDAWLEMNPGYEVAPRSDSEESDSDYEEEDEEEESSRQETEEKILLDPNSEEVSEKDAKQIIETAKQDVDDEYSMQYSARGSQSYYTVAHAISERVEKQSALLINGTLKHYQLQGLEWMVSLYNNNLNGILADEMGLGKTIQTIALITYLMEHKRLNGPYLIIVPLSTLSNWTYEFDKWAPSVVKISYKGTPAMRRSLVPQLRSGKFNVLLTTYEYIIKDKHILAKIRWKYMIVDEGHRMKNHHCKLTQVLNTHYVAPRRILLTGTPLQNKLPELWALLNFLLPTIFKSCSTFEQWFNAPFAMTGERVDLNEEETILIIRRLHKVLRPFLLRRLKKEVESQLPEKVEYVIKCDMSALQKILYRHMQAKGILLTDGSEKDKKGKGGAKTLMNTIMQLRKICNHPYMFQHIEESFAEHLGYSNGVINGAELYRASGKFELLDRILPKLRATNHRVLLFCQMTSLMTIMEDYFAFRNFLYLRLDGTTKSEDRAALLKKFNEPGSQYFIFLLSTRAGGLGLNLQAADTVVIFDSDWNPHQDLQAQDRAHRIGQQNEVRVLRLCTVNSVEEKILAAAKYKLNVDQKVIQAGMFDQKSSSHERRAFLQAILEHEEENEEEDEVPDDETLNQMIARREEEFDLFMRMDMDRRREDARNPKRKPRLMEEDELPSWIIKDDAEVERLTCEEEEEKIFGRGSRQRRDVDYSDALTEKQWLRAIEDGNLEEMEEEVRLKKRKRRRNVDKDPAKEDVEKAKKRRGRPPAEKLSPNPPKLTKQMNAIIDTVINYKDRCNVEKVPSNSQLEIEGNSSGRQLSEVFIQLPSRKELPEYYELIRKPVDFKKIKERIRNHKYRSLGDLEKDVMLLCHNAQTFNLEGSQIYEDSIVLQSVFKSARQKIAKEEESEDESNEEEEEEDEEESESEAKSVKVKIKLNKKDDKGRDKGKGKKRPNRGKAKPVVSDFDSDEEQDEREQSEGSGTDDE
# protocolDetails: MSD SMARCA2 degradation in A549 cell line
# Assay type: cell-based
# experimentalSetup: A549, A549 cells, 24 h
compounds and their reported Dmax

compound	Dmax
C#Cc1ccc(CNC(=O)[C@@H]2C[C@@H](O)CN2C(=O)[C@@H](NC(=O)N2CCN(C[C@@H]3CCN(c4cnc(N5CCc6[nH]c7nnc(-c8ccccc8O)cc7c6[C@H]5C)nc4)C3)CC2)C(C)(C)C)cc1 (single isomer, unassigned) [I-161]	> 90%
Cc1ncsc1-c1ccc(CNC(=O)[C@@H]2C[C@@H](O)CN2C(=O)C(c2cc(OCCCCN3CCC(c4cnc(N5CCN6c7cc(-c8ccccc8O)nnc7NC[C@@H]6C5)nc4)CC3)no2)C(C)C)cc1 (stereo partly shown) [I-51]	70 to 90%
Cc1ncsc1-c1ccc(CNC(=O)[C@@H]2C[C@@H](O)CN2C(=O)[C@@H](NC(=O)[C@H]2CC3(C2)C[C@H](N2CCC(c4ccnc(N5CCN6c7cc(-c8ccccc8O)nnc7NC[C@H]6C5)n4)CC2)C3)C(C)(C)C)cc1 (single isomer, unassigned) [I-5]	> 90%
C#Cc1cnc(CNC(=O)[C@@H]2C[C@@H](O)CN2C(=O)[C@@H](NC(=O)[C@H]2CC3(C2)C[C@H](N2CCC(N4CCC(N5CCN6c7cc(-c8ccccc8O)nnc7NC[C@H]6C5)CC4)CC2)C3)C(C)(C)C)c(OC)c1 (single isomer, unassigned) [I-330]	50 to 70%
C#Cc1ccc([C@H](CO)NC(=O)[C@@H]2C[C@@H](O)CN2C(=O)[C@@H](NC(=O)N2CC3(CC(N4CCC(c5cnc(N6CCc7[nH]c8nnc(-c9ccccc9O)cc8c7[C@H]6C)nc5)CC4)C3)C2)C(C)(C)C)cc1 [I-168]	> 90%
C#Cc1ccc(CNC(=O)[C@@H]2C[C@@H](O)CN2C(=O)[C@@H](NC(=O)N2CC3(CC(N4CCC(N5CCC(N6CCc7[nH]c8nnc(-c9ccccc9O)cc8c7[C@@H]6C)CC5)CC4)C3)C2)C(C)(C)C)c(F)c1 [I-182]	> 90%
C#Cc1ccc(CNC(=O)[C@@H]2C[C@@H](O)CN2C(=O)[C@@H](NC(=O)[C@H]2CCC3(CC2)C[C@H](N2CCC(c4cnc(N5CCN6c7cc(-c8ccccc8O)nnc7NC[C@H]6C5)nc4)CC2)C3)C(C)(C)CCO)cc1 (single isomer, unassigned) [I-131]	> 90%
C#Cc1ccc(CNC(=O)[C@@H]2C[C@@H](O)CN2C(=O)[C@@H](NC(=O)N2CCN(C3CC4(CCN(c5cnc(N6CCN7c8cc(-c9ccccc9O)nnc8NC[C@H]7C6)nc5)CC4)C3)CC2)C(C)(C)C)cc1 [I-284]	> 90%
C#CCOc1cc(C(C(=O)N2C[C@H](O)C[C@H]2C(=O)NCc2ccc(-c3scnc3C)cc2O[C@H]2CC[C@@H](N3CCC(c4cnc(N5CCc6[nH]c7nnc(-c8ccccc8O)cc7c6[C@@H]5C)nc4)CC3)CC2)C(C)C)on1 (stereo partly shown) [I-39]	50 to 70%
C#Cc1ccc(CNC(=O)[C@@H]2C[C@@H](O)CN2C(=O)[C@@H](NC(=O)N2CCC(N3CCC(N4CC5(CC(N6CCc7[nH]c8nnc(-c9ccccc9O)cc8c7[C@H]6C)C5)C4)CC3)CC2)C(C)(C)C)cc1 [I-208]	70 to 90%
C#Cc1ccc(CNC(=O)[C@@H]2C[C@@H](O)CN2C(=O)[C@@H](NC(=O)[C@H]2CCC3(CC2)C[C@H](N2CCN(c4cnc(N5CCN6c7cc(-c8ccccc8O)nnc7NC[C@H]6C5)nc4)CC2)C3)C(C)(C)CCO)cc1 (single isomer, unassigned) [I-287]	> 90%
C#Cc1ccc(CNC(=O)[C@@H]2C[C@@H](O)CN2C(=O)[C@@H](NC(=O)N2CC3(CC(N4CC(N5CCC(c6cnc(N7CCc8[nH]c9nnc(-c%10ccccc%10O)cc9c8[C@H]7C)nc6)CC5)C4)C3)C2)C(C)(C)C)cc1 [I-268]	> 90%
C#Cc1ccc(CNC(=O)[C@@H]2C[C@@H](O)CN2C(=O)[C@@H](NC(=O)N2CCN(CC3CCN([C@H]4CC[C@H](N5CCN6c7cc(-c8ccccc8O)nnc7NC[C@H]6C5)CC4)CC3)CC2)C(C)(C)C)cc1 [I-217]	70 to 90%
C#Cc1ccc(CNC(=O)[C@@H]2C[C@@H](O)CN2C(=O)[C@@H](NC(=O)[C@H]2CCC3(CC2)C[C@H](N2CCC(N4CC5(CC(N6CCN7c8cc(-c9ccccc9O)nnc8NC[C@H]7C6)C5)C4)CC2)C3)C(C)(C)C)c(Cl)c1 (single isomer, unassigned) [I-220]	> 90%
Cc1ncsc1-c1ccc(CNC(=O)[C@@H]2C[C@@H](O)CN2C(=O)C(c2cc(OCCCCN3CCC(c4cnc(N5CCc6[nH]c7nnc(-c8ccccc8O)cc7c6[C@H]5C)nc4)CC3)no2)C(C)C)cc1 (stereo partly shown) [I-35]	70 to 90%
Cc1ncsc1-c1ccc(CNC(=O)[C@@H]2C[C@@H](O)CN2C(=O)[C@@H](NC(=O)C2(F)CC2)C(C)(C)C)c(O[C@H]2CC[C@H](N3CCC(N4CCC(c5cnc(N6CCc7[nH]c8nnc(-c9ccccc9O)cc8c7[C@@H]6C)nc5)CC4)CC3)CC2)c1 (single isomer, unassigned) [I-47]	> 90%

====

Parameter: DC50. Scope: all listed entries.
# studySystem: SMARCA2 (Homo sapiens)
# protocolDetails: SMARCA2 Western blot degradation in MV4-11 cells
# Type: cell-based
# Design: SMARCA2/SMARCA4 protein degradation selectivity in MV4-11 cells; endogenous in cells; host or cells: MV4-11
# experimentalSetup: MV4-11 cells, 24 h; read-out: SMARCA2 MSD MV411 degradation 24 h: Mean external-Abs DC50
reportedProperty: DC50

compound	result
C#Cc1ccc(CNC(=O)[C@@H]2C[C@@H](O)CN2C(=O)[C@@H](NC(=O)N2CC3(CC(N4CCC(c5cnc(N6CCc7[nH]c8nnc(-c9ccccc9O)cc8c7[C@H]6C)nc5)CC4)C3)C2)C(C)(C)C)cc1F	1 to 10 nM
C#Cc1ccc(CNC(=O)[C@@H]2C[C@@H](O)CN2C(=O)[C@@H](NC(=O)C2CCC3(CC2)CC(N2CCC(N4CCC[C@@H](C(=O)N5CCN6c7cc(-c8ccccc8O)nnc7NC[C@H]6C5)C4)CC2)C3)C(C)(C)C)cc1 (single isomer, unassigned)	1 to 10 nM
C#Cc1ccc(CNC(=O)[C@@H]2C[C@@H](O)CN2C(=O)[C@@H](NC(=O)[C@H]2CCC3(CC2)C[C@H](N2CCN(c4cnc(N5CCN6c7cc(-c8ccccc8O)nnc7NC[C@H]6C5)nc4)CC2)C3)C(C)(C)CCO)cc1 (single isomer, unassigned) [I-299]	1 to 10 nM
C#Cc1ccc(CNC(=O)[C@@H]2C[C@@H](O)CN2C(=O)[C@@H](NC(=O)N2CC3(CC(N4CC5(CC(N6CCC(N7CCc8[nH]c9nnc(-c%10ccccc%10O)cc9c8[C@H]7C)CC6)C5)C4)C3)C2)C(C)(C)C)cc1	> 100 nM

====

# studySystem: SMARCA2 (Homo sapiens, UniProt P51531)
# protocolDetails: MSD SMARCA2 degradation in A549 cell line
# Type: cell-based
# experimentalSetup: A549, A549 cells, 24 h
reportedProperty: Dmax

molecule	studySystem	result
C#Cc1ccc(CNC(=O)[C@@H]2C[C@@H](O)CN2C(=O)[C@@H](NC(=O)N2CC3(CC(N4CCC(c5cnc(N6CCc7[nH]c8nnc(-c9ccccc9O)cc8c7[C@H]6C)nc5)CC4)C3)C2)C(C)(C)C)c(OCCCC(=O)O)c1 [I-145]	SMARCA2 (Homo sapiens, UniProt P51531)	> 90%
C#Cc1ccc(CNC(=O)[C@@H]2C[C@@H](O)CN2C(=O)[C@@H](NC(=O)N2CC3(CC(N4CCC(c5cnc(N6CCc7[nH]c8nnc(-c9ccccc9O)cc8c7[C@H]6C)nc5)CC4)C3)C2)C(C)(C)CCOCC(=O)O)cc1 (single isomer, unassigned) [I-262]	SMARCA2 (Homo sapiens, UniProt P51531)	50 to 70%
C#Cc1ccc([C@H](C)NC(=O)[C@@H]2C[C@@H](O)CN2C(=O)[C@@H](OC(=O)N2CC3(CC(N4CCC(c5cnc(N6CCc7[nH]c8nnc(-c9ccccc9O)cc8c7[C@H]6C)nc5)CC4)C3)C2)C(C)(C)C)cc1 [I-150]	SMARCA2 (Homo sapiens, UniProt P51531)	> 90%
C#Cc1ccc(CNC(=O)[C@@H]2C[C@@H](O)CN2C(=O)[C@@H](NC(=O)[C@H]2CC3(CC[C@H](N4CCN(c5cnc(N6CCc7[nH]c8nnc(-c9ccccc9O)cc8c7[C@H]6C)nc5)CC4)CC3)C2)C(C)(C)C)cc1 (single isomer, unassigned) [I-285]	SMARCA2 (Homo sapiens, UniProt P51531)	> 90%
Cc1ncsc1-c1ccc(CNC(=O)[C@@H]2C[C@@H](O)CN2C(=O)C(c2cc(OCCCN3CCC(c4cnc(N5CCN6c7cc(-c8ccccc8O)nnc7NC[C@H]6C5)nc4)CC3)no2)C(C)C)cc1 (single isomer, unassigned) [I-53]	SMARCA2 (Homo sapiens, UniProt P51531)	> 90%
C#Cc1c(F)cc(CNC(=O)[C@@H]2C[C@@H](O)CN2C(=O)[C@@H](NC(=O)N2CC3(CC(N4CCC(c5cnc(N6CCc7[nH]c8nnc(-c9ccccc9O)cc8c7[C@H]6C)nc5)CC4)C3)C2)C(C)(C)C)cc1F [I-402]	SMARCA2 (Homo sapiens, UniProt P51531)	> 90%
C#Cc1ccc(CNC(=O)[C@@H]2C[C@@H](O)CN2C(=O)[C@@H](NC(=O)N2CC3(CC(N4C[C@H]5CN(c6cnc(N7CCc8[nH]c9nnc(-c%10ccccc%10O)cc9c8[C@H]7C)nc6)C[C@H]5C4)C3)C2)C(C)(C)C)cc1 [I-171]	SMARCA2 (Homo sapiens, UniProt P51531)	> 90%
Cc1ncsc1-c1ccc(CNC(=O)[C@@H]2C[C@@H](O)CN2C(=O)C(c2cc(N3CCC4(CC3)CC(N3CCC(c5cnc(N6CCc7[nH]c8nnc(-c9ccccc9O)cc8c7[C@H]6C)nc5)CC3)C4)no2)C(C)C)cc1 (stereo partly shown) [I-13]	SMARCA2 (Homo sapiens, UniProt P51531)	> 90%
C#Cc1ccc(CNC(=O)[C@@H]2C[C@@H](O)CN2C(=O)[C@@H](NC(=O)N2CCN(CC3CCN([C@H]4CC[C@@H](N5CCN6c7cc(-c8ccccc8O)nnc7NC[C@H]6C5)CC4)CC3)CC2)C(C)(C)C)cc1 [I-216]	SMARCA2 (Homo sapiens, UniProt P51531)	70 to 90%
C#Cc1ccc(CNC(=O)[C@@H]2C[C@@H](O)CN2C(=O)[C@@H](NC(=O)N2CCN(C[C@H]3CC[C@@H](N4CCC(N5CCc6[nH]c7nnc(-c8ccccc8O)cc7c6[C@H]5C)CC4)CC3)CC2)C(C)(C)C)cc1 [I-193]	SMARCA2 (Homo sapiens, UniProt P51531)	70 to 90%
C#Cc1ccc(CNC(=O)[C@@H]2C[C@@H](O)CN2C(=O)[C@@H](NC(=O)[C@H]2CC3(C2)C[C@H](N2CCC(N4CCC(N5CCN6c7cc(-c8ccccc8O)nnc7NC[C@H]6C5)CC4)CC2)C3)C(C)(C)C)cc1 (single isomer, unassigned) [I-113]	SMARCA2 (Homo sapiens, UniProt P51531)	> 90%
C#Cc1ccc(CNC(=O)[C@@H]2C[C@@H](O)CN2C(=O)[C@@H](NC(=O)[C@H]2CCC3(CC2)C[C@H](N2CCC(N4CCC(N5CCN6c7cc(-c8ccccc8O)nnc7NC[C@H]6C5)CC4)CC2)C3)C(C)(C)C)c(OC)c1 (single isomer, unassigned) [I-177]	SMARCA2 (Homo sapiens, UniProt P51531)	> 90%
Cc1ncsc1-c1ccc(CNC(=O)[C@@H]2C[C@@H](O)CN2C(=O)[C@@H](NC(=O)C2(F)CC2)C(C)(C)C)c(O[C@H]2CC[C@@H](N3CCC(c4cnc(N5CCc6[nH]c7nnc(-c8ccccc8O)cc7c6[C@@H]5C)nc4)CC3)CC2)c1 (single isomer, unassigned) [I-34]	SMARCA2 (Homo sapiens, UniProt P51531)	70 to 90%
C#Cc1ccc(CNC(=O)[C@@H]2C[C@@H](O)CN2C(=O)[C@@H](NC(=O)N2CC3(CC(N4CCC(c5cnc(N6CCc7[nH]c8nnc(-c9ccccc9O)cc8c7[C@H]6C)nc5)CC4)C3)C2)C(C)(C)C)c(O)c1 [I-166]	SMARCA2 (Homo sapiens, UniProt P51531)	> 90%
C#Cc1ccc(CNC(=O)[C@@H]2C[C@@H](O)CN2C(=O)[C@@H](NC(=O)N2CC3(CC(N4CCC(c5cnc(N6CCc7[nH]c8nnc(-c9ccccc9O)cc8c7[C@H]6C)nc5)CC4)C3)C2)C(C)(C)C)cc1 (single isomer, unassigned) [I-73]	SMARCA2 (Homo sapiens, UniProt P51531)	> 90%
C#Cc1ccc(CNC(=O)[C@@H]2C[C@@H](O)CN2C(=O)[C@@H](NC(=O)C2CCC3(CC2)CC(N2CCC(N4CCC(C(=O)N5CCN6c7cc(-c8ccccc8O)nnc7NC[C@H]6C5)CC4)CC2)C3)C(C)(C)C)cc1 (stereo partly shown) [I-89]	SMARCA2 (Homo sapiens, UniProt P51531)	> 90%
